- tested target: 5-HT3A receptor D165A (Homo sapiens, UniProt P46098, D160A)
- experiment: radioligand saturation binding, transfected HEK293 membranes
- protocol conditions: [3H]-palonosetron saturation, 5-HT3A D165A, 4 °C, 24 h
metric: Kd (nM)
Number in nM, nothing else.

Consider the compound shown here: `O=C1c2cccc3c2[C@H](CCC3)CN1[C@@H]1CN2CCC1CC2` What is its recorded Kd?
0.3

---

- tested target: 5-HT3A receptor F130Y (Homo sapiens, UniProt P46098, F125Y)
- Sequence (P46098 24-478 F125Y): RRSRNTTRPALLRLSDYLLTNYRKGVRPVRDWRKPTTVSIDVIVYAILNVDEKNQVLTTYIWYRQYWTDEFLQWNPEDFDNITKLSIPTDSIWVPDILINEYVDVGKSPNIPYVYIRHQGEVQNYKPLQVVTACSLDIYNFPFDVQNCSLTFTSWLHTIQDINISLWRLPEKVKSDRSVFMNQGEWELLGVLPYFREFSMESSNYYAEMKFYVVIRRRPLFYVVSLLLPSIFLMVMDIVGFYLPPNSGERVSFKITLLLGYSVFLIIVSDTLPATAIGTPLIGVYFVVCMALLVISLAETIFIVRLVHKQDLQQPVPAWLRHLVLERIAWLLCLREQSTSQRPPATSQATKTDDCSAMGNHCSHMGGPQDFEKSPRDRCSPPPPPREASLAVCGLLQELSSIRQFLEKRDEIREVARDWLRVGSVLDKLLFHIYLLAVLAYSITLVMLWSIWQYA
- experiment: radioligand saturation binding, transfected HEK293 membranes
- protocol conditions: [3H]-palonosetron saturation, 5-HT3A F130Y, 4 °C, 24 h
metric: Kd
Your reply should be a number followed by the unit it is expressed in.

State the recorded Kd for this entry: `O=C1c2cccc3c2[C@H](CCC3)CN1[C@@H]1CN2CCC1CC2`
0.26 nM
